metric_name: melting point

[in] Which melting point value belongs to "CCC1(CC)C(=O)NC(C)(C)C(C)(C)N1OC(C)(C)C#N" ?
[out] 140 to 145 °C

[in] Which melting point value belongs to "CCOC(=O)c1c2n(c3cc(N4CCN(CC(C)=O)CC4)c(F)cc3c1=O)CS2" ?
[out] 170 to 172 °C

[in] Which melting point value belongs to OCC1COC(c2c(F)cccc2F)=N1 (stereo not drawn) ?
[out] 82 °C

[in] Which melting point value belongs to "CC(=O)N(C)c1cc(-c2ccnc3c(C(=O)c4cccs4)cnn23)ccc1F" ?
[out] 165 to 167 °C

[in] Which melting point value belongs to "CC(C)CCCOc1c(-c2ccc(S(C)(=O)=O)cc2)cnn(-c2cccc(Cl)c2)c1=O" ?
[out] 139 to 140 °C

[in] Which melting point value belongs to "O=C(CBr)Nc1ccc([N+](=O)[O-])cc1" ?
[out] 175 to 178 °C

[in] Which melting point value belongs to "COC(=O)c1ccc(-c2nnc(-c3ccc(C(F)(F)F)cc3)o2)c(N)c1" ?
[out] 237 to 238 °C

[in] Which melting point value belongs to "NC(=O)C(Cc1ccccc1)=NNc1ccc(C(O)(C(F)(F)F)C(F)(F)F)cc1" ?
[out] 211 to 213 °C

[in] Which melting point value belongs to "COc1cc(C)cc(OC)c1C(=O)c1ccccc1N(C)C(=O)CBr" ?
[out] 121 °C

[in] Which melting point value belongs to "CSc1ccc(-c2nn(Cc3ccccc3)c(=S)cc2-c2ccc(Cl)cc2)cc1" ?
[out] 103 °C

[in] Which melting point value belongs to "O=C1CCOc2ccc(Oc3ccccc3)cc21" ?
[out] 58 to 60 °C

[in] Which melting point value belongs to O=C1N(Cc2ccccc2C(F)(F)F)c2ccccc2C12COc1cc3[nH]ncc3cc12 (stereo not drawn) ?
[out] 124 to 126 °C

[in] Which melting point value belongs to "CCCOc1ccc(CCNC(=O)C(F)(F)F)cc1S(=O)(=O)N=CN(C)C" ?
[out] 142 °C
